Test Details: shake flask on a mixture of 185; loss from the water phase only; LC-Orbitrap peak areas
Test Context: room
Measure: log partition dichloromethane / HPLC water, unbuffered, traces of methanol / DMSO (log10)
One number for each entry, in log10.

These solved cases illustrate the format of a correct answer.
CC(=O)/C=C/c1ccccc1: -0.0685
Oc1c(Cl)ccc(Cl)c1Cl: -0.3412
COC(=O)C(C)N(C(=O)c1ccco1)c1c(C)cccc1C (stereo not shown): 1.796
CN/C(=N/[N+](=O)[O-])NCC1CCOC1 (stereo not shown): 0.2723
O=C1OC(=O)C2C3C=CC(C3)C12 (stereo not shown): 1.732

For the 2 compounds below, give their log partition dichloromethane / HPLC water, unbuffered, traces of methanol / DMSO values.
1. FC(F)C(F)(F)OCC(Cn1cncn1)c1ccc(Cl)cc1Cl (stereo not shown)
2. NC(=O)Nc1ccc(Cl)cc1

[1.238, -0.3897]

For the 5 compounds below, give their log partition dichloromethane / HPLC water, unbuffered, traces of methanol / DMSO values.
1. C=CC(=O)OCC1CC2CC1C1CCC(COC(=O)C=C)C21 (stereo not shown)
2. O=C1C=CC(=O)N1c1ccc(Cc2ccc(N3C(=O)C=CC3=O)cc2)cc1
3. CCOc1ccc2[nH]cc(C(=O)NCc3ccccc3)c(=O)c2n1
4. c1ccc(CCCc2ccncc2)cc1
5. CCNC(=O)C1CC(C)CCC1C(C)C (stereo not shown)

[0.05615, 0.07258, 1.153, 0.1807, -0.08543]

// log partition dichloromethane / HPLC water, unbuffered, traces of methanol / DMSO lookup, compound = c1ccc2[nH]c(-c3cscn3)nc2c1 , result: 1.694

====

Test Details: shake flask on a mixture of 185; loss from the water phase only; LC-Orbitrap peak areas
Test Context: room
So I've got a bunch of compounds here, and I need their log partition 1-octanol / HPLC water, unbuffered, traces of methanol / DMSO values.
Returns: string containing the number followed by the unit.

These solved cases illustrate the format of a correct answer.
O=C(OC1CCCCC1)c1ccccc1C(=O)OC1CCCCC1: 0.6596 log10
C=C(C)C(=O)OCCOCCOC(=O)C(=C)C: 0.2475 log10
NC(=O)Nc1ccc(Cl)cc1: 0.591 log10
CC(=O)CCc1ccc(OC(C)=O)cc1: -0.06689 log10
CCCCNS(=O)(=O)c1ccccc1: 0.09093 log10

For the 6 compounds below, give their log partition 1-octanol / HPLC water, unbuffered, traces of methanol / DMSO values.
1. CCCCC(O)(Cn1cncn1)c1ccc(Cl)cc1Cl (stereo not drawn)
2. CCCCCCCCCCCC(=O)OCC(O)CO (stereo not drawn)
3. CCc1nn(C)c(C(=O)NCc2ccc(C(C)(C)C)cc2)c1Cl
4. CC(C)(C)c1ccc(O)c(O)c1
5. Cc1cc(O)cc(C)c1Cl
6. C[C@H](CCC(=O)O)[C@H]1CC[C@H]2[C@@H]3CC[C@@H]4C[C@H](O)CC[C@]4(C)[C@H]3CC[C@]12C

1. 3.35 log10
2. -0.5214 log10
3. 1.459 log10
4. 0.06578 log10
5. 0.7604 log10
6. 1.225 log10

// log partition 1-octanol / HPLC water, unbuffered, traces of methanol / DMSO lookup, compound = COC(=O)C(C)N(C(=O)c1ccco1)c1c(C)cccc1C (stereo not drawn) , result: 1.653 log10
